These entries and their values trace back to patent US6518423B1.

parameter: melting point

Ask: Entry COC1(CC(=O)O)C2CCCC1CN(Cc1ccc3c(c1)Nc1nccnc1S3)C2 (stereo not shown) [Example 103] : reported melting point = ?
Result: 217 to 219 °C

Ask: GET /values?readout=melting point&item= CN(C)S(=O)(=O)NC1CCN(C(=N)Cc2ccc3c(c2)Nc2nccnc2S3)CC1.Cl
Result: 215 to 218 °C

Ask: Could you share which melting point value was measured for CC(C)(CCCN1CCN(Cc2ccc3c(c2)Nc2nccnc2S3)CC1)C(=O)O [750] ?
Result: 240 to 242 °C

Ask: What does the record list as melting point for N#CN=CN1CCN(Cc2ccc3c(c2)Nc2nccnc2S3)CC1 ?
Result: 238 to 241 °C (dec.)

Ask: Given CS(=O)(=O)NCC1CN(Cc2ccc3c(c2)Nc2nccnc2S3)C1 , state its recorded melting point.
Result: 84 to 88 °C

Ask: Which melting point reading was recorded for the compound Cc1cc(C)nc(NCc2ccc3c(c2)Nc2nccnc2S3)c1 ?
Result: 162 to 165 °C

Ask: Query (compound): O=C(O)CCCCCCCCCCSc1ncnc2c1ncn2Cc1ccc2c(c1)Nc1nccnc1S2 ; field requested: melting point
Result: 154 to 156 °C

Ask: Entry under review: O=c1ccccn1Cc1ccc2c(c1)Nc1nccnc1S2 . Reported melting point?
Result: 260 to 261 °C

Ask: Give the measured melting point of CC(c1cccnc1)c1ccc2c(c1)Nc1nccnc1S2 (stereo not shown) .
Result: 180 to 181 °C

Ask: State the recorded melting point for this entry: NS(=O)(=O)NC1CCN(Cc2ccc3c(c2)Nc2nccnc2S3)CC1
Result: 196 to 199 °C

Ask: Requested read-out: melting point. Entry: O=C(O)CCC(=O)N1CCN(Cc2ccc3c(c2)Nc2nccnc2S3)CC1
Result: 240 to 242 °C

Ask: Quick one: melting point for N#CC1CCN(Cc2ccc3c(c2)Nc2nccnc2S3)CC1 ?
Result: 198 to 199 °C

Ask: Consider the compound O=C(c1ccccn1)c1nccn1Cc1ccc2c(c1)Nc1nccnc1S2 and give its measured melting point.
Result: 191 to 193 °C

Ask: What value of melting point has been reported for the following compound? CC(O)c1ncnc2ncn(Cc3ccc4c(c3)Nc3nccnc3S4)c12 (stereo not shown)
Result: 205 to 208 °C

Ask: Please report the recorded melting point for c1cnc2c(n1)Nc1cc(CN3CCC3)ccc1S2 .
Result: 158 to 161 °C

Ask: Endpoint output: melting point of N#CN=C(Cc1ccc2c(c1)Nc1nccnc1S2)NO . Value?
Result: 253 to 256 °C

Ask: Entry C/C(=C\c1ncn(Cc2ccc3c(c2)Nc2nccnc2S3)c1C)C(N)=O has what melting point?
Result: 280 °C (dec.)

Ask: # get_value(readout='melting point', item= CN(C)S(=O)(=O)NC1CCN(Cc2ccc3c(c2)Sc2nccnc2N3)CC1 )
Result: 172 to 173 °C

Ask: Give its melting point value. Item: Cc1oncc1C(=O)NCCc1cn(Cc2ccc3c(c2)Nc2nccnc2S3)cn1
Result: 165 to 167 °C

Ask: Look up melting point for this compound: O=C(O)C1CCN(CCCc2ccc3c(c2)Nc2nccnc2S3)CC1
Result: 262 to 264 °C

Ask: Quick one: melting point of O=C(O)CNS(=O)(=O)NC1CCN(Cc2ccc3c(c2)Nc2nccnc2S3)CC1 ?
Result: 195 to 196 °C

Ask: Please look up its melting point: O=C(O)CC1CCN(Cc2ccc3c(c2)Nc2nccnc2S3)CC1
Result: 142 to 146 °C

* * *

Task for the reader: assign each of the following compounds its reported melting point.

Ask: Need melting point, item COc1ccc2c(c1)Nc1nccnc1N2C
Result: 198 to 201 °C

Ask: Report melting point for c1ccc(Cc2ccc(NCc3ccc4c(c3)Nc3nccnc3S4)cn2)cc1 please.
Result: 162 to 164 °C

Ask: May I ask what melting point has been recorded for c1ccc(Oc2ccc(NCc3ccc4c(c3)Nc3nccnc3S4)cn2)cc1 ?
Result: 162 to 165 °C

Ask: Fill in the blank: the reported melting point of O=c1[nH]cnc2c1ncn2Cc1ccc2c(c1)Nc1nccnc1S2 is ____.
Result: > 275 °C

Ask: Fill blank: measured melting point of the compound CC(C(=O)O)=C1CC2(CCN(Cc3ccc4c(c3)Nc3nccnc3S4)CC2)C1 is ____.
Result: 251 to 252 °C

Ask: Please give the measured melting point for this compound: O=S(=O)(NCCc1cn(Cc2ccc3c(c2)Nc2nccnc2S3)cn1)c1ccccc1
Result: 127 to 130 °C

Ask: Reported melting point for O=C(O)c1ccc(C2CCN(Cc3ccc4c(c3)Nc3nccnc3S4)CC2)cc1 : what is it?
Result: 265 to 268 °C

Ask: # melting point lookup, item CC(CCC1C2CCCC1CN(Cc1ccc3c(c1)Nc1nccnc1S3)C2)C(=O)O (stereo not shown)
Result: 104 to 108 °C

Ask: Item under review: COc1ccc2c(c1)N(C)c1nccnc1N2 . Reported melting point?
Result: 195 to 197 °C

Ask: Using the record for c1cnc2c(n1)Nc1cc(CNCC3CCNCC3)ccc1S2 , report its melting point.
Result: 173 to 175 °C

Ask: What value of melting point has been reported for the following compound? O=C(O)CCCN1c2ccccc2Nc2nccnc21
Result: 273 to 274 °C

Ask: I'd like to know its melting point. The compound in question is Cc1ncn(Cc2ccc3c(c2)Nc2nccnc2S3)c1C(C)O (stereo not shown)
Result: 178 to 182 °C

Ask: What does the data say about its melting point? Entry: OC(c1ccc2c(c1)Nc1nccnc1S2)c1ccccc1CN1CCCCC1 (stereo not shown)
Result: 219 to 221 °C

Ask: Entry under review: CS(=O)(=O)/N=C(\N)C1CCN(Cc2ccc3c(c2)Nc2nccnc2S3)CC1 . Reported melting point?
Result: 204 to 209 °C

Ask: Could you tell me which melting point is on file for CN(Cc1ccc2c(c1)Nc1nccnc1S2)CC1CCC(C(=O)O)CC1 (stereo not shown) ?
Result: 203 to 204 °C

Ask: Look at this compound and give its reported melting point. N#CN=C(Cc1ccc2c(c1)Nc1nccnc1S2)NCCS(=O)(=O)[O-].[Na+]
Result: 213 to 215 °C

* * *

parameter: melting point

Ask: Item under review: O=C(O)Cc1cc2c(s1)CN(Cc1ccc3c(c1)Nc1nccnc1S3)CC2 . Reported melting point?
Result: 98 to 105 °C

Ask: Data request, read-out melting point, for CC1(O)CCN(Cc2ccc3c(c2)Nc2nccnc2S3)CC1
Result: 176 to 180 °C

Ask: Report melting point for O=C(O)CC1C2CN(Cc3ccc4c(c3)Nc3nccnc3S4)CC1C21CCC1 (centres unmarked) [Example 85] please.
Result: 175 to 180 °C

Ask: For the compound shown here, C(=N\c1ccccn1)/NCc1ccc2c(c1)Nc1nccnc1S2 , give the reported melting point.
Result: 137 to 142 °C

Ask: What does the data say about its melting point? Entry: CC(=O)NCCC1CCN(Cc2ccc3c(c2)Nc2nccnc2S3)CC1
Result: 194 to 196 °C

* * *

Would you mind telling me the reported melting point of each entry?

Ask: For the molecule CC(C)(O)CC1C2CCCC1CN(Cc1ccc3c(c1)Nc1nccnc1S3)C2 (stereo not shown) , what melting point is on record?
Result: 182 to 185 °C

Ask: Look up melting point for this molecule: C/C(=C\C(=O)O)CC1CCN(Cc2ccc3c(c2)Nc2nccnc2S3)CC1
Result: 126 to 130 °C

Ask: Name the recorded melting point for CC(CCC1(CO)CCN(Cc2ccc3c(c2)Nc2nccnc2S3)CC1)C(=O)O (stereo not shown) .
Result: 105 to 110 °C

Ask: Which measured melting point value corresponds to Nc1nccn1Cc1ccc2c(c1)Nc1nccnc1S2 ?
Result: 286 to 287 °C

* * *

Field: melting point. Provide a value for each of the compounds that follow.

Ask: Need melting point, item CCCCCCCCC/C(=C\c1ncn(Cc2ccc3c(c2)Nc2nccnc2S3)c1C)C(=O)O
Result: 194 to 197 °C

Ask: What value of melting point has been reported for the following compound? CC1(C(=O)O)C2CCCC1CN(Cc1ccc3c(c1)Nc1nccnc1S3)C2 (centres unmarked) [Example 113]
Result: 264 to 265 °C

Ask: Which melting point is listed for C/C(=C\c1ncn(Cc2ccc3c(c2)Nc2nccnc2S3)c1C)C(=O)O ?
Result: > 290 °C

Ask: Record request: melting point value, item COc1cc(C2CCN(Cc3ccc4c(c3)Nc3nccnc3S4)CC2)cc(CC(=O)O)c1OC
Result: 138 to 140 °C

Ask: Any idea what its melting point is? The compound is CN1CCCN=C1Cc1ccc2c(c1)Nc1nccnc1S2.Cl
Result: > 280 °C

Ask: # melting point lookup, item N/C(Cc1ccc2c(c1)Nc1nccnc1S2)=N\S(N)(=O)=O
Result: > 260 °C (dec.)

Ask: Request the reported melting point associated with CN1c2ccc(CNC(=N)N)cc2Nc2nccnc21
Result: > 275 °C

Ask: I have this compound here, O=C(O)CS(=O)(=O)NC1CCN(Cc2ccc3c(c2)Nc2nccnc2S3)CC1 , and I need its recorded melting point.
Result: 200 to 210 °C

Ask: Reported melting point, compound O=C(Nc1ccccc1)N(Cc1ccc2c(c1)Nc1nccnc1S2)c1cccnc1 : ____
Result: 208 to 210 °C

Ask: Endpoint output: melting point of CCOC(=O)c1ccc2c(c1)Nc1nccnc1N2C . Value?
Result: 239 to 242 °C

Ask: Given the entry CCOC(=O)/C=C/c1cccc(C(O)c2ccc3c(c2)Nc2nccnc2S3)n1 (centres unmarked) , report its measured melting point.
Result: 160 to 170 °C (dec.)

Ask: Bench note: what melting point did Nc1c(N2CCN(Cc3ccc4c(c3)Nc3nccnc3S4)CC2)c(=O)c1=O show?
Result: 285 to 288 °C (dec.)

Ask: Any idea what its melting point is? The compound is OCCN1c2ccccc2Nc2nccnc21
Result: 197 to 204 °C

Ask: So what does the record say about melting point for NC(Cc1ccc2c(c1)Nc1nccnc1S2)=NO ?
Result: 252 to 254 °C

Ask: Give the measured melting point of OC(c1ccc2c(c1)Nc1nccnc1S2)c1cc(Br)ccc1F (centres unmarked) .
Result: 202 to 203 °C

Ask: Can you share its melting point? I mean this compound: COC(=O)CC1C2CCCC1CN(Cc1ccc3c(c1)Nc1nccnc1S3)C2 (centres unmarked)
Result: 127 to 129 °C

Ask: Tell me the measured melting point of CCOC(=O)CCCNC(Cc1ccc2c(c1)Nc1nccnc1S2)=NC#N , please.
Result: 154 to 155 °C

Ask: Requested read-out: melting point. Entry: O=C(O)C(F)C1C2CCCC1CN(Cc1ccc3c(c1)Nc1nccnc1S3)C2 (centres unmarked)
Result: 185 to 187 °C

Ask: Any idea what melting point was measured for CCOP(=O)(Cc1ccc2c(c1)Nc1nccnc1S2)OCC ?
Result: 164 to 165 °C

Ask: Bench note: what melting point did COc1ccc(C2CCN(Cc3ccc4c(c3)Nc3nccnc3S4)CC2)cc1CC(=O)O show?
Result: 174 to 176 °C
